Taken from PubChem BioAssay (NCATS).

- System: CP237
- assay-notes: qHTS profiling for inhibitors of Plasmodium falciparum proliferation (AID 504749); note: nearly all actives have a fitted effect of over 60% in size; note: potency is the fitted concentration of half-maximal effect
- experimental-conditions: P. falciparum in erythrocytes, SYBR Green DNA, 72 h; series mostly up to 12.8 µM
Inconclusive results are not listed. Calls of active or inactive are those of the source. Calls come from the whole dose curve; as a rule, active = well fitted inhibition curve with a large enough effect; inconclusive = small, poorly fitted or top-dose-only effect; inactive = flat fitted curve, though single readings scatter.
property-measured: Potency

# example entries with known answers
QUERY: Look up and report measured Potency for this entry: `COc1ccc(OC)c([C@H](O)CNC(=O)CN)c1`
RESULT: inactive

QUERY: Complete the entry with Potency for `Cc1cccc(CN2CCN([C@@H](c3ccccc3)c3ccc(Cl)cc3)CC2)c1`
RESULT: inactive

QUERY: State, in one line, measured Potency of `CC(=O)OCC(=O)[C@@]1(O)[C@H](C)C[C@@H]2[C@H]3CCC4=CC(=O)C=C[C@]4(C)[C@]3(F)[C@@H](O)C[C@@]21C`
RESULT: inactive

QUERY: Please indicate Potency recorded for `O=C(NC[C@@H](O)CO)c1c(I)c(C(=O)NC[C@@H](O)CO)c(I)c(N(CCO)C(=O)CO)c1I`
RESULT: inactive

QUERY: Fill in Potency for record C=Cc1c(C)c2cc3nc(cc4[nH]c(cc5nc(cc1[nH]2)C(C)=C5CCC(=O)O)c(CCC(=O)OC)c4C)[C@@]1(C)C3=CC=C(C(=O)OC)[C@H]1C(=O)OC (tested in a mixture with another compound)
RESULT: 5.01 µM (active)

QUERY: Determine its reported Potency: `C=CCN1C(=CCO)[C@H]2C[C@H]3[C@@H]1CC[C@@]31c3ccccc3N3C=C4[C@@H]5N(/C=C/2[C@H]31)c1ccccc1[C@]51CC[C@H]2[C@H]1C[C@@H]4/C(=C/CO)N2CC=C`
RESULT: inactive

***
QUERY: Give the reported value of Potency for this record: OCC1OC(n2cnc3c(=S)nc[nH]c32)C(O)C1O (centres undefined)
RESULT: inactive

QUERY: Output Potency of `NC(=O)N[C@H]1NC(=O)NC1=O`
RESULT: inactive

QUERY: Specify Potency for `CC(=O)N[C@H](CC(C)C)C(=O)O` and stop.
RESULT: inactive

QUERY: Specify measured Potency for C/C1=C2N=C(/C=C3N=C(/C(C)=C4\[N-]C(C)(C5N=C1C(C)(CCC(=O)NCC(C)OP(=O)([O-])O[C@H]1C(O)C(n6cnc7cc(C)c(C)cc76)O[C@@H]1CO)C5CC(N)=O)C(C)(CC(N)=O)C4CCC(N)=O)C(C)(CC(N)=O)C\3CCC(N)=O)C(C)(C)C/2CCC(N)=O.[CH2-]C1OC(n2cnc3c(N)ncnc32)C(O)C1O.[Co] (some centres undefined) .
RESULT: inactive

QUERY: Output measured Potency for this item: `C[C@H](Oc1ccccc1)C(=O)N[C@@H]1C(=O)N2[C@@H]1SC(C)(C)[C@@H]2C(=O)O`
RESULT: inactive

====

- target-or-test-system: Rap guanine nucleotide exchange factor 3 (Homo sapiens) (UniProt O95398)
- Sequence (O95398 whole entry, looked up): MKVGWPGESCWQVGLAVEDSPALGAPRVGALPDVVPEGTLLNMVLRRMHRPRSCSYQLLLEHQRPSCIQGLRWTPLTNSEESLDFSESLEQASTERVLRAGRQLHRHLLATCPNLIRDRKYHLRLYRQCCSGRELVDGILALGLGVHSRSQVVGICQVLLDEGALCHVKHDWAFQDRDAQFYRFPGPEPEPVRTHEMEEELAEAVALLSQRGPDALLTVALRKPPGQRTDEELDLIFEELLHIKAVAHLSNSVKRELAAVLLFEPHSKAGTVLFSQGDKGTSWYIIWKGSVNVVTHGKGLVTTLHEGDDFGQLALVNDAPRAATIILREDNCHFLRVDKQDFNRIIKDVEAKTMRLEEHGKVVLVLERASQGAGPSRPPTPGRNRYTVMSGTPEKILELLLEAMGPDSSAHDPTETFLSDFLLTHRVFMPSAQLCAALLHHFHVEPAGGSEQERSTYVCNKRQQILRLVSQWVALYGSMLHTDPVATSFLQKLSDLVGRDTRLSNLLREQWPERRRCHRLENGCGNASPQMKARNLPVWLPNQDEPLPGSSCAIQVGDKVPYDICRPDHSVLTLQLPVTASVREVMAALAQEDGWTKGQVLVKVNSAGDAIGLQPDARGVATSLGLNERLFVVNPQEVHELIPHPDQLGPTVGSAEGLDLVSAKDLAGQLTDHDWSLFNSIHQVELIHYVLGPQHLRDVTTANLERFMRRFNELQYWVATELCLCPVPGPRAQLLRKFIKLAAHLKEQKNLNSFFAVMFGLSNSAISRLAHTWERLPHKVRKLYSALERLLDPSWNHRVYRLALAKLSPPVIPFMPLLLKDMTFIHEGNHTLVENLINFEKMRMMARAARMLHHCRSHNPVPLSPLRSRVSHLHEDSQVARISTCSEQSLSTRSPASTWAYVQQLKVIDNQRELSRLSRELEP
- assay-notes: Confirmatory qHTS for agonist of cAMP-regulated guanine nucleotide exchange factor 3 (EPAC1) (AID 1645881); note: nearly all actives have a fitted effect of over 75% in size;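 for activation: EPAC1 catalysed release of BODIPY-GDP from Rap1B seen as fluorescence loss; 100% = effect of cAMP agonist control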
- experimental-conditions: EPAC1 Rap1B BODIPY-GDP exchange fluorescence; series mostly up to 154 µM
Records with an inconclusive call do not appear. Calls of active or inactive are those of the source. Calls follow the shape of the dose curve; as a rule, active = well fitted activation curve with a large enough effect; inconclusive = small, poorly fitted or top-dose-only effect; inactive = no such curve, though single readings can be large or run the other way.
Bench note: report the call from active, inactive

# count of solved cases: 8
QUERY: Identify the outcome logged in this assay for the compound shown: `Cc1ccc(-c2csc(NC(=O)c3ccc(Br)cc3)c2C(=O)O)cc1`
RESULT: inactive

QUERY: Given `CCCOC(=O)c1c(-c2ccccc2)c(-c2ccccc2)nn(C)c1=O` , state the outcome it received in this test.
RESULT: inactive

QUERY: Can you look up the reported call for `CCc1cccc2sc(N3CCN(C(=O)C4CC4)CC3)nc12` for me?
RESULT: inactive

QUERY: What classification did `COc1ccc(N2CCN(C(=O)c3noc4c3CCCCC4)CC2)cc1` end up with in this test?
RESULT: inactive

QUERY: // return assay outcome for `O=C(COc1ccccc1Cl)Nc1cccc(S(=O)(=O)NC2=NCCCCC2)c1`
RESULT: inactive

QUERY: What did this assay record as the result for `Cc1ccc(-c2cc3ccccc3nc2N2CCOCC2)cc1` ?
RESULT: inactive

QUERY: Each compound tested received a call. Report the one for `CCCCn1c(N)c(N(CCC(C)C)C(=O)Cc2ccc(S(=O)(=O)N3CCOCC3)s2)c(=O)[nH]c1=O` .
RESULT: inactive

QUERY: Outcome? `N#Cc1cc(C(=O)c2cc(F)ccc2O)cn(-c2nccs2)c1=O`
RESULT: active

***
QUERY: Could you please tell me the result logged for CC1CC1C(=O)OCC(=O)NNC(=O)COc1ccc(Br)cc1 (stereo unspecified) in this assay?
RESULT: inactive

QUERY: How did this test come out for `COc1cc(/C=C2/C(=O)NN(c3ccc(Cl)cc3)C2=O)ccc1OC(=O)c1ccco1` ?
RESULT: inactive

QUERY: Test call for this compound, please: `Cc1ccc(S(=O)(=O)N2[C@@H](c3ccc(Br)cc3)C(C(=O)O)=CC[C@H]2c2ccc(Cl)c(Cl)c2)cc1`
RESULT: inactive

====

- target-or-test-system: Cytochrome P450 2D6 (Homo sapiens)
- assay-notes: Cytochrome P450 family 2 subfamily D member 6 (CYP2D6) small molecule antagonists: luciferase biochemical (cell-free) qHTS assay (AID 1645840); note: nearly all actives have a fitted effect of over 55% in size; note: potency is the fitted concentration of half-maximal effect
- experimental-conditions: P450-Glo CYP2D6 enzyme, luciferin luminescence, 1 h; series mostly up to 57.4 µM
Records with an inconclusive call do not appear. Active and inactive are the calls of the source. The call rests on the fitted dose curve; in most records, active means well fitted inhibition curve with a large enough effect in the repeat runs; inconclusive means weak or mixed curves; inactive means flat fitted curve, though single readings scatter.
property-measured: Potency

QUERY: Return reported Potency for target or system Cytochrome P450 2D6 (Homo sapiens), item `Cc1ccc(C)c(N2CCN(C(=O)C3CCN(S(=O)(=O)c4ccc5[nH]c(=O)oc5c4)CC3)CC2)c1` .
RESULT: inactive

QUERY: Report value: Potency, system: Cytochrome P450 2D6 (Homo sapiens), molecule: `C=C(C)[C@H]1CC=C(C)CC1`
RESULT: inactive

QUERY: Look up and report Potency, with Cytochrome P450 2D6 (Homo sapiens) as system, for `COc1ccc(Br)c2c1-c1nc(NC(=O)c3ccccc3SC)sc1C2`
RESULT: inactive

QUERY: Provide measured Potency on Cytochrome P450 2D6 (Homo sapiens) for `Cc1nc2c3ccccc3nc(NNC(=O)CCC(=O)N3CCN(c4ccccc4)CC3)n2n1` please.
RESULT: inactive

QUERY: Retrieve Potency on Cytochrome P450 2D6 (Homo sapiens); query `Cc1ccc(C)c(Nc2nc3nonc3nc2Nc2cccc(C)c2C)c1`
RESULT: 10.7 µM (active)

QUERY: Give Potency; test system Cytochrome P450 2D6 (Homo sapiens); molecule `Cn1c(=O)c2c(nc(CN3CCN(C(=O)C4CC4)CC3)n2Cc2cccc(F)c2)n(C)c1=O`
RESULT: inactive

***
QUERY: Please look at `N#C/C(=C/c1ccccc1Cl)c1nc2ccccc2c(=O)[nH]1` and tell me its recorded Potency on Cytochrome P450 2D6 (Homo sapiens).
RESULT: inactive

====

- assay-notes: qHTS Assay for Lipid Storage Modulators (AID 1519)
- experimental-conditions: Drosophila S3 cells, BODIPY lipid droplet/cell ratio, laser cytometry; measured here: lipid channel max response; cells loaded with oleic acid
Results filed as inconclusive are left out.
property-measured: max response (%)
Give the quantity in %, number only.

See these solved cases before continuing.
QUERY: Determine its reported max response: `CCN(CC)[C@@H](C)CN1c2ccccc2Sc2ccccc21`
RESULT: -2.65

QUERY: Identify measured max response corresponding to `O=C(CC(=O)c1ccccc1)c1ccccc1`
RESULT: 4.72

QUERY: Quote max response reported for COc1ccc2c(c1)OCC(Cc1ccc(OC)c(OC)c1)C2O (centres undefined) please.
RESULT: 15.9

Continue with the compound presented below.
QUERY: Give max response for `C=N[C@H](C(=O)N[C@@H]1C(=O)N2[C@@H]1SC(C)(C)[C@@H]2C(=O)O)c1ccccc1`
RESULT: -4.08

====

- System: ATS95
- assay-notes: qHTS profiling for inhibitors of Plasmodium falciparum proliferation (AID 504749); note: nearly all actives have a fitted effect of over 60% in size
- experimental-conditions: P. falciparum in erythrocytes, SYBR Green DNA, 72 h; series mostly up to 12.8 µM
- Description: NIH National Institute of Allergy and Infectious Diseases [NIAID] NIH Chemical Genomics Center [NCGC] […] Because mature erythrocytes lack DNA, only Plasmodium-derived DNA is detected. NCGC Assay Protocol Summary: The SYBR Green viability assay was adapted from a method described previously (Plouffe et al., 2008). […] The following morning, fluorescence intensity at 485(14) nm excitation and 535(25) nm emission wavelengths was measured on an EnVision (Perkin Elmer) plate reader. […]
Results filed as inconclusive are left out. Activity calls are given as the source filed them. Calls come from the whole dose curve; as a rule, active = well fitted inhibition curve with a large enough effect; inconclusive = small, poorly fitted or top-dose-only effect; inactive = flat fitted curve, though single readings scatter.
Hello, when you answer, please use one of the following outcomes: label 1 (active), label 0 (inactive)

QUERY: # outcome recorded in this test, key = C[C@@H]1O[C@H](O[C@@H]2\C=C/C=C\C=C/C=C\C[C@H](C)OC(=O)/C=C\[C@H]3O[C@@H]3C[C@H](O)C[C@]3(O)C[C@@H](O)[C@@H](C(=O)O)[C@H](C2)O3)[C@@H](O)[C@H](N)[C@@H]1O (stereo in doubt)
RESULT: label 0

QUERY: Can you look up the reported call for `C[N+]12CCC(CC1)[C@@H](OC(=O)C(O)(c1ccccc1)c1ccccc1)C2` for me?
RESULT: label 0

More entries:
QUERY: What was the test verdict on `CCC(=O)[C@@]1(C)[C@H](C)C[C@@H]2[C@@H]3CCC4=CC(=O)C=C[C@@]4(C)[C@H]3[C@H](O)C[C@]21C` ?
RESULT: label 0

QUERY: Entry `CCO[C@H]1O[C@@H]([C@H](COCc2ccccc2)OCc2ccccc2)[C@@H](OCc2ccccc2)[C@H]1O` : call = ?
RESULT: label 0

QUERY: # outcome recorded in this test, key = CCC(CCC(C)C1CCC2C3CC=C4CC(O)CC[C@@]4(C)C3CC[C@@]12C)C(C)C (stereo partly drawn)
RESULT: label 0

QUERY: What is the recorded call for this compound in the test? COc1ccc(CC(N)C(=O)NC2C(CO)OC(n3cnc4c(N(C)C)ncnc43)C2O)cc1 (stereo not drawn)
RESULT: label 1

QUERY: For this compound, state the assay outcome: CC(=O)N[C@@H]1C(O)OC(CO)C(O)C1O (stereo partly drawn)
RESULT: label 0

QUERY: Please share the test call associated with `COc1ccc([C@@H]2CC(=O)c3c(O)cc(O[C@H]4O[C@@H](CO[C@H]5O[C@@H](C)[C@@H](O)[C@@H](O)[C@@H]5O)[C@@H](O)[C@@H](O)[C@@H]4O)cc3O2)cc1O` .
RESULT: label 0

QUERY: What outcome does the record of this test show for `CC1=C(C(=O)O)N2C(=O)[C@@H](NC(=O)[C@@H](N)c3ccc(O)cc3)[C@@H]2SC1` ?
RESULT: label 0

QUERY: What outcome does the record of this test show for `C[C@H](Oc1ccccc1)C(=O)N[C@@H]1C(=O)N2[C@@H]1SC(C)(C)[C@@H]2C(=O)O` ?
RESULT: label 0

QUERY: GET /call?item= `CC1(C)S[C@@H]2[C@H](NC(=O)[C@@H](N)c3ccccc3)C(=O)N2[C@H]1C(=O)O[C@H]1OC(=O)c2ccccc21` returns the recorded outcome of this test.
RESULT: label 0

QUERY: Fill in: this test's call for CN(C)CCc1c[nH]c2ccc(CC3COC(=O)N3)cc12 (stereo not drawn) is ___
RESULT: label 0

QUERY: What call does the record list for `C[C@H](C(=O)O)c1cccc(Oc2ccccc2)c1` ?
RESULT: label 0

QUERY: Please share the test call associated with `CC(=O)C[C@H](c1ccc([N+](=O)[O-])cc1)c1c(O)c2ccccc2oc1=O` .
RESULT: label 0

QUERY: Short answer needed: outcome of this test for `CCC(=O)O[C@@H]1[C@H](C)O[C@H](O[C@H]2[C@@H](N(C)C)[C@H](O)[C@@H](O[C@@H]3[C@@H](CC=O)C[C@@H](C)[C@@H](O)/C=C\C=C/C[C@@H](C)OC(=O)C[C@@H](OC(=O)CC)[C@H]3OC)O[C@H]2C)C[C@]1(C)O` ?
RESULT: label 0

QUERY: Call for entry CCC(=O)O[C@@]1(C(=O)CCl)C(C)CC2C3CCC4=CC(=O)C=C[C@@]4(C)[C@]3(F)C(O)C[C@]21C (stereo partly drawn) :
RESULT: label 1
